Here, each record is paired with measured percent crop plant damage at 320 g/ha data.
Test system: Glycine max (GLXMA)
Experiment: Post-emergence effects on crop plants, section F (Table F4)
Assay type: in vivo
Conditions: Glycine max, 504 h, application rate 320 g/ha, read-out: post-emergence activity against GLXMA in %
Number plus unit, in that order.

The examples below pair each entry with its known result.
[
  {
    "compound": "CC(C)C(=O)N1C[S+]([O-])c2cc(Br)c(-c3ccccc3)nc21 (stereo not shown)",
    "studyTarget": "Glycine max (GLXMA)",
    "percent crop plant damage at 320 g/ha": "10%"
  },
  {
    "compound": "CC(=O)N1CSc2cc(Br)c(-c3ccccc3Cl)nc21",
    "studyTarget": "Glycine max (GLXMA)",
    "percent crop plant damage at 320 g/ha": "20%"
  },
  {
    "compound": "O=C(C1CCCC1)N1CSc2cc(Br)c(-c3ccccc3F)nc21",
    "studyTarget": "Glycine max (GLXMA)",
    "percent crop plant damage at 320 g/ha": "20%"
  },
  {
    "compound": "O=C(c1ccccc1C(F)(F)F)N1CSc2cc(Br)c(-c3ccccc3Cl)nc21",
    "studyTarget": "Glycine max (GLXMA)",
    "percent crop plant damage at 320 g/ha": "0%"
  },
  {
    "compound": "COC(=O)CCC(=O)N1CSc2cc(Br)c(-c3sccc3Cl)nc21",
    "studyTarget": "Glycine max (GLXMA)",
    "percent crop plant damage at 320 g/ha": "10%"
  },
  {
    "compound": "CCS(=O)(=O)N1CS(=O)(=O)c2cc(C)c(-c3ccccc3F)nc21",
    "studyTarget": "Glycine max (GLXMA)",
    "percent crop plant damage at 320 g/ha": "0%"
  }
]

// next item, percent crop plant damage at 320 g/ha requested
Ask | Consider the compound Cc1cc2c(nc1-c1ccccc1F)N(C(=O)C1CC1)CS2 and give its measured percent crop plant damage at 320 g/ha.
Reply | 0%
